Assay: in vitro
Settings: both, human, 10 min, 1 μM
Quantity kind: Concentration (μM) of analyte PEA, 10 min (µM)
Value expressed in µM; do not type the unit.

CCCCCCCCCCCCCCCC(=O)NCCOC(=O)CCC = 0.057
CC/C=C\C/C=C\C/C=C\C/C=C\C/C=C\CCCC(=O)OCCNC(=O)CCCCCCCCCCCCCCC = 0.050
CCCCCCCCCCCCCCCC(=O)NCCOC(=O)CCC(=O)OCC(O)CO (stereo not shown) = 0.18
CCCCCCCCCCCCCCCC(=O)NCCOC(=O)CCC(=O)OCC(COC(=O)CCCCCCC)OC(=O)CCCCCCC (stereo not shown) [Compound I-3, PEA-Succinate-Glycerol-Di-Caprylic] = 0.0027
CCCCCCCCCCCCCCCC(=O)NCCOC(=O)CCC(=O)OCC(COC(=O)CCC)OC(=O)CCC (stereo not shown) = 0.13
CCCCC/C=C\C/C=C\CCCCCCCC(=O)OCCNC(=O)CCCCCCCCCCCCCCC = 0.023

Turning now to a further compound:
Record `CCCCCCCCCCCCCCCC(=O)NCCOC(=O)CCC(=O)OC[C@H]1O[C@@](CO)(O[C@H]2O[C@H](CO)[C@@H](O)[C@H](O)[C@H]2O)[C@@H](O)[C@@H]1O` , field Concentration (μM) of analyte PEA, 10 min: 0.46
